Assay readout: intrinsic clearance, human liver microsomes

As a guide, the following entries are already answered.
[
  {
    "Molecule smiles": "Cc1nn(-c2ccccn2)c2nc(C3CC3)cc(C(=O)O)c12",
    "Experimental value": "4.89 mL/min/kg"
  },
  {
    "Molecule smiles": "CCOC(=O)CNC(=O)c1ccc(O)cc1O",
    "Experimental value": "34.3 mL/min/kg"
  },
  {
    "Molecule smiles": "CCCN(C(=O)c1c(CC)noc1C)C1Cc2ccccc2C1",
    "Experimental value": "182 mL/min/kg"
  },
  {
    "Molecule smiles": "O=C(NO)c1cnc(NC2(c3ccccc3)CC2)nc1",
    "Experimental value": "≤ 4.74 mL/min/kg"
  },
  {
    "Molecule smiles": "O=C(O)c1cnn(-c2ccncc2)c1C(F)F",
    "Experimental value": "≤ 4.74 mL/min/kg"
  },
  {
    "Molecule smiles": "CCc1nc(CN2C(=O)COc3ccc(F)cc32)cs1",
    "Experimental value": "65.1 mL/min/kg"
  },
  {
    "Molecule smiles": "CCNC(=O)C1CN(c2nc(C3CC3)nc3c2CCC3)C1",
    "Experimental value": "≤ 4.74 mL/min/kg"
  },
  {
    "Molecule smiles": "COC1(c2nc(Cc3ccccc3)no2)CCN(Cc2cnc(C)o2)CC1",
    "Experimental value": "18 mL/min/kg"
  }
]

Problem: Name the recorded intrinsic clearance, human liver microsomes of the item Cc1cc(OCC(=O)N2CCC(n3c(=O)[nH]c4ccccc43)CC2)ccc1Cl in your answer.
Result: 432 mL/min/kg

Problem: Name the recorded intrinsic clearance, human liver microsomes of the item Cc1cc(Cl)c(OCCCN2CCNCC2)c(Br)c1 in your answer.
Result: ≤ 4.74 mL/min/kg

Problem: Name the recorded intrinsic clearance, human liver microsomes of the item CCOC(=O)c1cc2ccccc2n1CC(=O)c1ccc(F)cc1 in your answer.
Result: 756 mL/min/kg

Problem: Name the recorded intrinsic clearance, human liver microsomes of the item Cc1nccc(-c2cccc(NCC(=O)N(C)c3ccccc3)c2)n1 in your answer.
Result: 22 mL/min/kg
